# test_target: BCRP (Homo sapiens)
# Sequence (Q9UNQ0 1-655): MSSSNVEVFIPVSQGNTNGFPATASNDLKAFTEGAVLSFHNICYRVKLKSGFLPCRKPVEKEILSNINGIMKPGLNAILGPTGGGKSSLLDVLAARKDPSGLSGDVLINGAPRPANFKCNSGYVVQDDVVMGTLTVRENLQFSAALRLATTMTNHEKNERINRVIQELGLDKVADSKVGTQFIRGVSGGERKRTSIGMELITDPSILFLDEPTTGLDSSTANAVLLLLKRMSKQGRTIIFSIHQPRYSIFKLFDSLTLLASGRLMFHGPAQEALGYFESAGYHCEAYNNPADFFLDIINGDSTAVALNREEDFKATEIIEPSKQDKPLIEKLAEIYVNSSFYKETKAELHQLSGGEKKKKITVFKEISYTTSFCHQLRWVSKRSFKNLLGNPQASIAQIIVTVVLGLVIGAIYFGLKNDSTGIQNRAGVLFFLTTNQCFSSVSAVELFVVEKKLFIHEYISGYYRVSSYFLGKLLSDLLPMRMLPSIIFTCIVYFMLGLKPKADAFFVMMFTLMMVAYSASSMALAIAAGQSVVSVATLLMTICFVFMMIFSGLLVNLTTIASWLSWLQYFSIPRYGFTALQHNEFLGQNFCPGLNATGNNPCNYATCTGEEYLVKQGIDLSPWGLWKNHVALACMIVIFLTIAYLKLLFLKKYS
# assay_overview: ABC efflux transporter inhibitor test on Caco-2 cells (E3S efflux)
# particulars: human, Caco-2 cells, probe E3S (10 µM), Exhaust inhibition rate (%), substrate E3S 10 µM, inhibitor 10 µM
assay_metric: inhibition at 10 µM (%)
Response body: numeric value in %, unit text excluded.

Any idea what its inhibition at 10 µM is? The compound is COc1cc2c(cc1OC)CN(CCc1ccc(NC(=O)c3cccc4c(=O)c5cccc(OC)c5[nH]c34)cc1)CC2 [Elacridar, reference compound] 91.6
